B1: Pistol ribozyme (parent)
chain: GGGUCGUUGUUCCAUAAUCGCGUGGAUAUGGCACGCAAGUUUCUACCGGGCACCGUAAAUGUCCGACUGGAGCCGUUCGGGCGGCUAUAAACAGACCUCAGGCCCGAAGCGUGGCGGCACCUGCCGCCGGUGGUAAAAAAGAUCGGAAGAGCACACGUCU

- Variants of: B1
- run description: aptazyme ON/OFF ratio, guanine; higher = stronger switching; co-transcriptional cleavage with and without guanine
Kindly state aptazyme ON/OFF ratio for each of the entries shown.
Lab note: write the figure by itself, no unit.

// query aptazyme ON/OFF ratio for U7G U8A G9U U10G C12G C13A ?
// result 1.05

// query Fill blank: measured aptazyme ON/OFF ratio of the variant U7C U8G C12A C13U is ____.
// result 1.27

// query Record request: aptazyme ON/OFF ratio value, item G9U U10A U11C C12G C13U
// result 1.47

// query Which aptazyme ON/OFF ratio is listed for U7A U8C U10A U11G ?
// result 1.17

// query Tell me the measured aptazyme ON/OFF ratio of U7C U8C G9U U11G C12A , please.
// result 1.19

// query aptazyme ON/OFF ratio lookup needed for U7A U8C G9A U11A C12G C13G , thanks.
// result 1.21

// query State the recorded aptazyme ON/OFF ratio for this entry: G9U U10G U11G C12U C13G
// result 1.17

// query Give its aptazyme ON/OFF ratio value. Item: U7G G9C U10A U11G C12U C13U
// result 1.26

// query Given U8G U10A C12U , state its recorded aptazyme ON/OFF ratio.
// result 1.17

// query Find the recorded aptazyme ON/OFF ratio belonging to U7G G9C U11C C12U C13A and report it.
// result 1.37

// query Value lookup for aptazyme ON/OFF ratio; key = U7C U8G U10G U11G C12A
// result 1.28

// query Data request, read-out aptazyme ON/OFF ratio, for U7A U8A G9A U10A U11G C13U
// result 1.16

// query Need aptazyme ON/OFF ratio of U8A G9C U10A U11A C12A , thanks.
// result 1.25

// query I have this variant here, U7A U8A G9C U11A C12U C13A , and I need its recorded aptazyme ON/OFF ratio.
// result 1.1

// query # lookup: aptazyme ON/OFF ratio of U7G U8G G9A U10A U11G C12A C13U
// result 1.1

// query Fill in: aptazyme ON/OFF ratio of U7A U8C G9A U10G U11A C12A C13G is ___
// result 1.11

// query # input variant: U7G U8G G9A U10G U11C C12A C13A ; wanted: its aptazyme ON/OFF ratio
// result 1.17

// query Quick one: aptazyme ON/OFF ratio of U8A G9U U10G U11A ?
// result 1.07

// query Reported aptazyme ON/OFF ratio for U8A G9U U10G U11A C12G C13U : what is it?
// result 1.28

// query Name the reported aptazyme ON/OFF ratio value associated with the variant U7A U8A G9U U10A U11C C12U C13G
// result 1.05

// query Endpoint output: aptazyme ON/OFF ratio of U7C G9U U10A U11A C12A . Value?
// result 1.2

// query Give the measured aptazyme ON/OFF ratio of U8G G9A C12A C13A .
// result 1.25
